Reported competition rate is given for each of the following binders.
# measured_target: T1, biotin-labeled recombinant EGFRvIII protein (UniProt P00533 25-645, biotin-labeled)
# T1 construct: the construct is not described
# assay_protocol: competitive ELISA; competitor Murine anti-64F1

binder | competition rate / %
Murine anti-7E5 (antibody, V domains shown, Mouse hybridoma antibody; also called 7E5-2A9; murine anti-7E5-2) VH: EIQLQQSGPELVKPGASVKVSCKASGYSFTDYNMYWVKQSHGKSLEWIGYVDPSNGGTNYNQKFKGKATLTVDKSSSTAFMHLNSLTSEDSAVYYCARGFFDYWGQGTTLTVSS VL: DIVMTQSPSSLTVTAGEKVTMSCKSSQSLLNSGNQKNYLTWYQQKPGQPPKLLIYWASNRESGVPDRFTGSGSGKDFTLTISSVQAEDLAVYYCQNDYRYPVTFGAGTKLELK | 71
Murine anti-64F1 (antibody, V domains shown, Mouse hybridoma antibody; also called 64F1F8) VH: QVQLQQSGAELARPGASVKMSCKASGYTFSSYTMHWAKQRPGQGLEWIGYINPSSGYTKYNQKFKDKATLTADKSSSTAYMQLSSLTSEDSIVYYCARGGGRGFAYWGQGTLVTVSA VL: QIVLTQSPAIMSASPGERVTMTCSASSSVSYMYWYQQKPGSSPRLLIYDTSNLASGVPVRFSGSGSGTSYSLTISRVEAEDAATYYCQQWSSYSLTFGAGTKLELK | 72
Murine anti-63A10 (antibody, V domains shown, Mouse hybridoma antibody; also called 63A10A7) VH: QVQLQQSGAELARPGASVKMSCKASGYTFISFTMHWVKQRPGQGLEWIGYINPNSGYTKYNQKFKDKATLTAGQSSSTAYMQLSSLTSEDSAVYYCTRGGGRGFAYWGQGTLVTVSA VL: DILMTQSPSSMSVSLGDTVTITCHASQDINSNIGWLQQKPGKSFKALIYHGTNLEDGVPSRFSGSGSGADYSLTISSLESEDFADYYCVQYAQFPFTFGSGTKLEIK | 73
Murine anti-75G7 (antibody, V domains shown, Mouse hybridoma antibody; also called 75G7C6) VH: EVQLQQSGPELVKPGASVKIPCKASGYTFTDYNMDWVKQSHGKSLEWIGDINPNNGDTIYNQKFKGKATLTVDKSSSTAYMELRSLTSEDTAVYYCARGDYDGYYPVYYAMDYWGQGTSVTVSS VL: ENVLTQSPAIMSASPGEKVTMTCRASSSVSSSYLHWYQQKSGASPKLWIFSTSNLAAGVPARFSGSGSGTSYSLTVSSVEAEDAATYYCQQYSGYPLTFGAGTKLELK | -3
